Recorded yeast fitness for the following variants
B1: tRNA (parent)
chain: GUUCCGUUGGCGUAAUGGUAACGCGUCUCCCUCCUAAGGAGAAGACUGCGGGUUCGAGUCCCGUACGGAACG

Variants of: B1
assay.name: yeast fitness relative to wild type (ratio to wild type); higher = fitter; tRNA-Arg(CCU), competitive growth, 37 C, YPD
Fewer inactive variants are shown than the library holds.

Here's what some known entries look like.
| sequence | yeast fitness |
| --- | --- |
| GUUCCGUUGGCGUAAUGGUAACGCGUCUCCCUCCUAAGGUGAAGACUGUGGGUUCGAGUCUCGUACGGAGCG [A40U C49U C61U A70G] | ≤ 0.5 |
| GUUCCGUUGGCGUAAUGGUAACGCGUCUCCCUCCUAACGAGAAGUCUGCGGGUACGAGUCUCGUACGGAACG [G38C A45U U54A C61U] | ≤ 0.5 |
| GUUCCGUUGGCGUAAUGGUAACGCGUCUCACUCCUAAGGAGAAGAUUGCGGAUUUGAGUCCCGUACGGAACG [C30A C46U G52A C55U] | ≤ 0.5 |

Entry under review: GUUGCGUUGGCGUAUUGGUAACGCGUCUCCCUCCUAAGGAGAAGACUGCGGGUUCCAGUCCCGUACGGAACG [C4G A15U G56C] . Reported yeast fitness?
≤ 0.5

Entry GUUCCGUUGUCGUAUUGGUAACGCGUCUCCGUCCUAAGGAGAAGACUGCCGGUUCGAGCCCUGUACGGAACG [G10U A15U C31G G50C U59C C62U] please
≤ 0.5

What would you report for GUUCCGUUGGCGUAAUGAUUACGCGUCUCCCUCCUUAGGAGAAGACUGCGGGUUCGAGUCCUGUACGGAACG [G18A A20U A36U C62U] ?
≤ 0.5

Try this variant too: GUUCCGUUGGCGUAAUGGUACCGCGUUUCCCUCCUAAGGAGAAGAGUACGGGUUCGAGUCCGGUACGCAACG [A21C C27U C46G G48A C62G G68C]
≤ 0.5

Ok, now GUUCCGUUGGCGUAAUGGUAAUGCGUCUCCCUCCCAAGGAGAAGACUGCGGGUUAGAGUCCCGUGUGGAACG [C22U U35C C55A A65G C66U]
≤ 0.5

All figures here come from the RNAGym collection of RNA variant scans (doi:10.1126/science.aae0568).
